Assign CC50 to each entry below.
Test system: LNCaP
procedure-text: SRB colorimetric assay of cell growth and viability, LNCaP
Assay type: cell-based, human
condition-label: 48 hours exposure; read-out: LC50 LN-caP
Where a SMILES comes first, the peptide text is derived from it. Bridges are numbered along the chain shown (N, C = ends). [ ]: non-standard residue; d: D form. The star is where a group is joined. d(aIle) = CC[C@H](C)[C@@H](N)C(=O)O; d(aThr) = C[C@@H](O)[C@@H](N)C(=O)O; Hexanoyl(5-Me) = CC(C)CCCC(=O)*; Orn = NCCC[C@H](N)C(=O)O; Dhb = C/C=C(\N)C(=O)O
Answers are plain numbers, in µM.

molecule C/C=C1\NC(=O)[C@H](Cc2ccccc2)NC(=O)[C@@H](C(C)C)NC(=O)[C@@H]([C@@H](C)CC)NC(=O)[C@H](NC(=O)[C@H](NC(=O)[C@H](CCCN)NC(=O)[C@H]2CCCN2C(=O)[C@H](NC(=O)[C@@H](NC(=O)[C@@H](NC(=O)[C@H](NC(=O)CCCNC(=N)N)C(C)C)[C@@H](C)O)C(C)C)C(C)C)[C@@H](C)CC)[C@@H](C)OC(=O)[C@H](C(C)C)NC1=O [Compound 29, [4-GuBut^14]-KF] , CC50 observed: 6.7

molecule C/C=C1\NC(=O)[C@H](Cc2ccccc2)NC(=O)[C@@H](C(C)C)NC(=O)[C@@H]([C@@H](C)CC)NC(=O)[C@H](NC(=O)[C@H](NC(=O)[C@H](CCCN)NC(=O)[C@H]2CCCN2C(=O)[C@H](NC(=O)CNC(=O)[C@@H](NC(=O)[C@H](NC(=O)CCCC(C)C)C(C)C)[C@@H](C)O)C(C)C)[C@@H](C)CC)[C@@H](C)OC(=O)[C@H](C(C)C)NC1=O [Compound 42, [Gly^11]-KF] ({Hexanoyl(5-Me)}-[dV]TG[dV][dP][Orn][d(aIle)][d(aThr)][d(aIle)][dV]F[Dhb]V; ester 8-C) , CC50 observed: 6.96

Consider the additional molecule presented here.
molecule C/C=C1\NC(=O)[C@H](Cc2ccccc2)NC(=O)[C@@H](C(C)C)NC(=O)[C@@H]([C@@H](C)CC)NC(=O)[C@H](NC(=O)[C@H](NC(=O)[C@H](CCCCN)NC(=O)[C@H]2CCCN2C(=O)[C@H](NC(=O)[C@@H](NC(=O)[C@@H](NC(=O)[C@H](NC(=O)CCCC(C)C)C(C)C)[C@@H](C)O)C(C)C)C(C)C)[C@@H](C)CC)[C@@H](C)OC(=O)[C@H](C(C)C)NC1=O [Compound 5, [Lys^8]-KF] , CC50 observed: 0.0479

---

System: LoVo
procedure-text: SRB colorimetric assay of cell growth and viability, LoVo
Type: cell-based, human
condition-label: 48 hours exposure
Where a SMILES comes first, the peptide text is derived from it. Bridges are numbered along the chain shown (N, C = ends). [ ]: non-standard residue; d: D form. The star is where a group is joined. d(aIle) = CC[C@H](C)[C@@H](N)C(=O)O; d(aThr) = C[C@@H](O)[C@@H](N)C(=O)O; Hexanoyl(5-Me) = CC(C)CCCC(=O)*; Orn = NCCC[C@H](N)C(=O)O; Dhb = C/C=C(\N)C(=O)O
measurement-label: GI50 (µM)
Answers are plain numbers, in µM.

compound C/C=C1\NC(=O)[C@H](Cc2ccccc2)NC(=O)[C@@H](C(C)C)NC(=O)[C@@H]([C@@H](C)CC)NC(=O)[C@H](NC(=O)[C@H](NC(=O)[C@H](CCCN)NC(=O)[C@H]2CCCN2C(=O)[C@H](NC(=O)[C@@H](NC(=O)[C@@H](NC(=O)[C@H](NC(=O)CCCC(C)C)C(C)C)[C@@H](C)O)[C@@H](C)O)C(C)C)[C@@H](C)CC)[C@@H](C)OC(=O)[C@H](C(C)C)NC1=O [Compound 50, [Thr^11]-KF] ({Hexanoyl(5-Me)}-[dV]TT[dV][dP][Orn][d(aIle)][d(aThr)][d(aIle)][dV]F[Dhb]V; ester 8-C) , GI50 observed: 1.21
